- ASSAYED SYSTEM: [Pyruvate dehydrogenase (acetyl-transferring)] kinase isozyme 1, mitochondrial (Homo sapiens, UniProt Q15118)
- Sequence (Q15118 whole entry): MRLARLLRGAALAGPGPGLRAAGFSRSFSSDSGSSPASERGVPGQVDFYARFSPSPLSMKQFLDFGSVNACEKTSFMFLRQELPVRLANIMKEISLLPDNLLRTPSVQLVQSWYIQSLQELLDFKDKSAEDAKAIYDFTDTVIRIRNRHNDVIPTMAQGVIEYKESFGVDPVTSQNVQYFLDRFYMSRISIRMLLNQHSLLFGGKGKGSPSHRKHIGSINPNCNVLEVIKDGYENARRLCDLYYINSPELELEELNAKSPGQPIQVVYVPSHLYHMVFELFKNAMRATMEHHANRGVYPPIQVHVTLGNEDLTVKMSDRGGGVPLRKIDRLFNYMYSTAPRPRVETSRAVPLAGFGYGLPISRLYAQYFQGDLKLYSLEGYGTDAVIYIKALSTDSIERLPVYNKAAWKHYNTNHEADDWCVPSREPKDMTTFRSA
pIC50: −log10 of the molar value.
Measured pIC50, listed per entry for reference.
VALUE KIND: pIC50

{"columns": ["STRUCTURE SMILES STRING", "VALUE KIND", "OBS VALUE"],
 "data": [
  ["Cc1cc(S(=O)(=O)NCCN(C)C)cnc1-c1ccc(N(Cc2ccsc2)C(=O)c2ccc(O)cc2O)cc1", "pIC50", 8.00],
  ["O=C(c1ccc(O)cc1O)N(Cc1ccccc1)c1ccc(-c2ccccc2Cl)cc1", "pIC50", 8.00],
  ["O=C(NC1CC1)c1ccc(N(Cc2ccccc2)C(=O)c2ccc(O)cc2O)cc1", "pIC50", 6.00],
  ["O=C(c1ccc(O)cc1O)N(Cc1ccccc1)c1ccc(-c2ccc(N3CCOCC3)nn2)cc1", "pIC50", 6.00],
  ["CN(Cc1cccc2cnccc12)C(=O)c1ccc(N(Cc2ccccc2)C(=O)c2ccc(O)cc2O)cc1", "pIC50", 7.00],
  ["Cc1nccn1-c1ccc(-c2ccc(N(Cc3cccnc3)C(=O)c3ccc(O)cc3O)cc2)nn1", "pIC50", 7.00],
  ["Cc1cc(-c2ccc(N(Cc3cccnc3)C(=O)c3ccc(O)cc3O)cc2)cnc1Cl", "pIC50", 6.00],
  ["O=C(c1ccc(O)cc1O)N(Cc1cccnc1)c1ccc(-c2ncccc2CO)cc1", "pIC50", 7.00],
  ["Cc1cc(S(=O)(=O)NCc2cccnc2)cnc1-c1ccc(N(Cc2ccccc2)C(=O)c2ccc(O)cc2O)cc1", "pIC50", 8.00],
  ["Cc1cc(S(=O)(=O)NCc2cccs2)cnc1-c1ccc(N(Cc2ccccc2)C(=O)c2ccc(O)cc2O)cc1", "pIC50", 8.00],
  ["O=C(c1ccc(O)cc1O)N(Cc1cccnc1)c1ccc(-c2ccc(N3CCOCC3)nn2)cc1", "pIC50", 6.00],
  ["O=C(c1ccc(O)cc1O)N(Cc1cccnc1)c1ccc(-c2nc3ccccc3cc2CO)cc1", "pIC50", 7.00],
  ["Cc1cc(N)cnc1-c1ccc(N(Cc2ccccc2)C(=O)c2ccc(O)cc2O)cc1", "pIC50", 7.00],
  ["CN(C)C(=O)c1ccc(N(Cc2ccncc2)C(=O)c2cc(Cl)c(O)cc2O)cc1", "pIC50", 6.00],
  ["Cc1cc2ccccc2nc1-c1ccc(N(Cc2cccc(F)c2)C(=O)c2ccc(O)cc2O)cc1", "pIC50", 8.00],
  ["O=C(Nc1ccc(N(Cc2ccccc2)C(=O)c2ccc(O)cc2O)cc1)NC1CCNCC1", "pIC50", 5.00],
  ["CN(Cc1ccnc2ccccc12)C(=O)c1ccc(N(Cc2cccnc2)C(=O)c2ccc(O)cc2O)cc1", "pIC50", 7.00],
  ["CCc1nccnc1-c1ccc(N(Cc2cccnc2)C(=O)c2ccc(O)cc2O)cc1", "pIC50", 7.00],
  ["O=C(c1ccc(O)cc1O)N(Cc1ccsc1)c1ccc(-c2cnc3ccccc3n2)cc1", "pIC50", 5.00]
]}
